Hey, just so you know, these numbers are from patent US20160151406A1.

tested on: SK-Hep1 HCC cells; test: Single-agent cell proliferation (AlamarBlue), SK-Hep1; assay type: cell-based; conditions: Homo sapiens, 72 h, drug alone, proliferation 3 days post drug treatment, read-out: EMD1214063 IC50
value_kind: IC50 (µM)
Numbers only, in µM.

// `CN1CCC(COc2cnc(-c3cccc(Cn4nc(-c5cccc(C#N)c5)ccc4=O)c3)nc2)CC1` : IC50 value = 6.7

----------
tested on: Huh7 HCC cells; assay: Single-agent cell proliferation (AlamarBlue), Huh7; type: cell-based; settings: Homo sapiens, Huh-7, 72 h, drug alone, proliferation 3 days post drug treatment, read-out: Tivantinib IC50
value_kind: IC50

// O=C1NC(=O)[C@@H](c2cn3c4c(cccc24)CCC3)[C@@H]1c1c[nH]c2ccccc12 [Tivantinib] : IC50 value = 1.5 to 3.32 µM
